- Test system: NCI-H226 lung
- measurement-protocol: NCI-60 one-dose screen, 48 h (100 = growth as untreated, 0 = no growth, -100 = all killed)
- condition-notes: 10 µM unless noted
About 83,000 compounds went through this panel and 20% of them were active in at least one assay; those are over-represented in the sample as a whole.
Please note: True applies when growth is 60% or greater, and False applies otherwise.

Example cases with answers are listed next.
Ask: Hello, I need to know if C=C1CCC2C3(C)COC(c4ccccc4)OC3CCC2(C)C1CC(NCc1ccccc1)C1=CCOC1=O (centres undefined) has measured growth not below 60%. Thanks!
Reply: True

Ask: Hello, I need to know if `Cc1ccc(C(=O)C(c2c[nH]c3ccccc23)c2c[nH]c3ccccc23)cc1` has measured growth not below 60%. Thanks!
Reply: False

Ask: Hello, I need to know if COc1cc2c(c(OC)c1OC)C(=O)CC(c1cccc(NC(=O)c3cc(NC(=O)[C@H](CO)NC(=O)OC(C)(C)C)ccc3Cl)c1)O2 (some centres undefined) has measured growth not below 60%. Thanks!
Reply: False

New cases:
Ask: Hello, I need to know if `CCCSc1nc(NCCc2c[nH]c3ccccc23)c(C#N)c(-c2ccc(OC)cc2)n1` has measured growth not below 60%. Thanks!
Reply: False

Ask: Hello, I need to know if COc1cc(C2CC(c3cc(OC)c(OC)c(OC)c3)=NN2C(C)=O)ccc1OCc1ccccc1 (centres undefined) has measured growth not below 60%. Thanks!
Reply: False

Ask: Hello, I need to know if CC1=C(C(=O)OCc2ccccc2)C(c2c(O)cc(O)cc2O)n2c(nc3ccccc32)N1 (centres undefined) has measured growth not below 60%. Thanks!
Reply: True

Ask: Hello, I need to know if `COc1cc(-c2nc3ccc(C)cc3[nH]2)ccc1OCc1nnc(-c2ccc(Br)cc2)o1` has measured growth not below 60%. Thanks!
Reply: False

Ask: Hello, I need to know if COc1cc2c(c(OC)c1OC)C(=O)CC(c1cccc(NC(=O)[C@@H](N)CC(C)C)c1)O2 (some centres undefined) has measured growth not below 60%. Thanks!
Reply: True

Ask: Hello, I need to know if `CCCCc1c(Nn2cnnn2)no[n+]1[O-]` has measured growth not below 60%. Thanks!
Reply: True

* * *

- Tested on: HS 578T breast
- measurement-protocol: NCI-60 one-dose screen, 48 h (100 = growth as untreated, 0 = no growth, -100 = all killed)
- condition-notes: 10 µM unless noted
The panel holds about 83,000 compounds, 20% with a hit somewhere; the sample as a whole holds those more often.
assay-endpoint: growth (%)
The response must be a number in % with no trailing unit.

// compound COc1c(F)ccc(C(=O)Nc2ccc3nc(NC(=O)C4CCCN(S(=O)(=O)c5cccc(Br)c5)C4)sc3c2)c1F (stereo not drawn) , assay HS 578T breast, growth value: 56.6

// compound `O=[N+]([O-])c1ccc(/C=C/c2nc3ccccc3n3c(=S)[nH]nc23)cc1` , assay HS 578T breast, growth value: 75.7

// compound `CN1CCN(c2ccc(C(=O)/C=C/c3cc(C(F)(F)F)cc(C(F)(F)F)c3)cc2)CC1` , assay HS 578T breast, growth value: 26.9

// compound `COc1ccc(C(=O)/C=C/c2ccc(OCc3ccccc3)c(OC)c2)cc1OC` , assay HS 578T breast, growth value: 75.5

// compound `Cc1occc1C(=O)NN1C(=O)/C(=C/C=C/c2ccc([N+](=O)[O-])o2)SC1=S` , assay HS 578T breast, growth value: 19.4

// compound `O=C(COc1ccc(NC(=O)Nc2ccc(Cl)c(Cl)c2)cc1)N=Nc1c(O)[nH]c2ccccc12` , assay HS 578T breast, growth value: -9.24

// compound CC12CC[C@@H]3[C@]4(C)COC(c5cn[nH]c5-c5ccc(Cl)cc5)O[C@@H]4CC[C@@]3(C)[C@@H]1CC(C1=CCOC1=O)O2 (stereo partly drawn) , assay HS 578T breast, growth value: 51

// compound CC1(C)CC[C@]2(C(=O)O)CC[C@]3(C)C(=CCC4[C@@]5(C)C[C@@H](O)[C@@H]6OC(c7ccccc7F)OC[C@@]6(C)C5CC[C@]43C)C2C1 (stereo partly drawn) , assay HS 578T breast, growth value: 21.6

* * *

- System: RXF 393 renal
- measurement-protocol: NCI-60 one-dose screen, 48 h
- condition-notes: 10 µM unless noted
The panel holds about 83,000 compounds, 20% with a hit somewhere; the sample as a whole holds those more often. Activity calls are given as the source filed them. How the source made its calls: active means growth percent below 10; inactive means the rest.
# valid calls are active, inactive; nothing else

Ask: Look up the recorded call for C=C1CC[C@@H]2[C@]3(C)COC(c4cn(-c5ccccc5)nc4-c4ccccc4)O[C@@H]3CC[C@@]2(C)[C@@H]1C/C=C1/C(=O)OC[C@H]1O (some centres not stated) in this test.
Reply: active

* * *

- Tested on: SNB-75 CNS
- measurement-protocol: NCI-60 one-dose screen, 48 h (100 = growth as untreated, 0 = no growth, -100 = all killed)
- condition-notes: 10 µM unless noted
The panel holds about 83,000 compounds, 20% with a hit somewhere; the sample as a whole holds those more often. Activity calls are given as the source filed them. The calls were made as follows: active = growth percent below 10; inactive = the rest.
Entries and their growth values follow.

Sample answers from the record:
response.value for `Cc1ccc(S(=O)(=O)c2nc(S(=O)(=O)c3ccc(C)cc3)c(N3CCC(O)CC3)s2)cc1` (field: growth) = 97.5% (inactive)

response.value for CCOC(=O)C1=C(N)N(c2ccccc2)C2=C(C(=O)CC(C)(C)C2)C1c1cccc(Cl)c1Cl (centres undefined) (field: growth) = 56.8% (inactive)

response.value for CCCS(=O)(=O)N1CCCC(C(=O)Nc2nc3ccc(NC(=O)c4ccc(F)c(OC)c4F)cc3s2)C1 (centres undefined) (field: growth) = 64.1% (inactive)

response.value for `CC(=O)c1c(N)c(C#N)cn1-c1ccc(Cl)cc1Cl` (field: growth) = 90.5% (inactive)

response.value for O=c1oc2ccccc2cc1-c1csc(N2N=C(c3ccccc3)CC2c2ccc(N3CCOCC3)cc2)n1 (centres undefined) (field: growth) = 101% (inactive)

response.value for CC1CN(c2oc(-c3ccc([N+](=O)[O-])cc3)nc2C#N)CC(C)O1 (centres undefined) (field: growth) = 98.8% (inactive)

response.value for `CC(=O)Nc1cccc(Nc2nccc(N[C@@H](C)c3ccccc3)n2)c1` (field: growth) = 7.86% (active)

response.value for `Cc1cc(C)cc(NC(=O)Cn2cc(COn3nnc4ccccc43)nn2)c1` (field: growth) = 96.3% (inactive)

Please look at the following compound next.
response.value for COc1cc2c(c(OC)c1OC)C(=O)CC(c1cccc(NC(=O)c3cccc([N+](=O)[O-])c3)c1)O2 (centres undefined) (field: growth) = 38.1% (inactive)

* * *

- Tested on: PC-3 prostate
- measurement-protocol: NCI-60 one-dose screen, 48 h (100 = growth as untreated, 0 = no growth, -100 = all killed)
- condition-notes: 10 µM unless noted
This is part of a sample that, as a whole, favours compounds with a hit. Of some 83,000 tested, about 20% had one in any assay.
Please note: label 1 applies when growth is 50% or greater, and label 0 applies otherwise.

Example cases with answers are listed next.
Ask: Hello, I need to know if OCC1(CCCc2ccccc2)CCCN(c2nccc3ccccc23)C1 (centres undefined) has measured growth not below 50%. Thanks!
Reply: label 1

Ask: Hello, I need to know if `COc1ccc(Cc2nn(CC(=O)N/N=C/c3ccc(F)cc3)c(=O)c3c(C)noc23)cc1` has measured growth not below 50%. Thanks!
Reply: label 0

Ask: Hello, I need to know if CC1=C(C(=O)c2ccccc2)C(c2cccc(Cl)c2Cl)n2c(nc3ccccc32)N1 (centres undefined) has measured growth not below 50%. Thanks!
Reply: label 0

Ask: Hello, I need to know if `O=C1CCCc2cc(OCC(=O)N3CCCCC3)ccc2N1` has measured growth not below 50%. Thanks!
Reply: label 1

New cases:
Ask: Hello, I need to know if `COc1cc2oc(-c3cccc(C(=O)Nc4ccc(Cl)cc4)c3)cc(=O)c2c(OCC(=O)N[C@@H](Cc2ccccc2)C(=O)O)c1OC` has measured growth not below 50%. Thanks!
Reply: label 1

Ask: Hello, I need to know if CC12CC[C@@H]3[C@]4(C)COC(c5cn[nH]c5-c5cccc(Br)c5)O[C@@H]4CC[C@@]3(C)[C@@H]1CC(C1=CCOC1=O)O2 (some centres undefined) has measured growth not below 50%. Thanks!
Reply: label 0

Ask: Hello, I need to know if `C#CCOc1ccc(/C=N/Nc2nc(-c3cc4cc(Br)ccc4oc3=O)cs2)cc1OC` has measured growth not below 50%. Thanks!
Reply: label 1

Ask: Hello, I need to know if `Cc1ccc(C(SCCNCc2cc(N(C)C)ccn2)(c2ccccc2)c2ccccc2)cc1` has measured growth not below 50%. Thanks!
Reply: label 0
